Test system: Substance-P receptor (Oryctolagus cuniculus)
PROTOCOL DESCRIPTION: Tested for the binding affinity towards tachykinin receptor 1 (NK1) in rabbit pulmonary artery tissue
EXPERIMENTAL READOUT: pKB

                                   molecule  experimental_readout  measurement
0  COc1c(C#N)cc2ccccc2c1C(=O)N(C)C[C@@H](CCN1CCC(N2CCCNC2=O)CC1)c1ccc(Cl)c(Cl)c1                   pKB         8.45
1  CN(C[C@@H](CCN1CCC(c2ccc(C(=O)O)cc2[S+](C)[O-])CC1)c1ccc(Cl)c(Cl)c1)C(=O)c1cc(C#N)cc2ccccc12 (mixture of isomers)                   pKB         7.87
2  CN(C[C@@H](CCN1CCC(c2cc(Br)ccc2[S+](C)[O-])CC1)c1ccc(Cl)c(Cl)c1)C(=O)c1cc(C#N)cc2ccccc12 (mixture of isomers)                   pKB         8.46

---

SYSTEM: Substance-K receptor (Oryctolagus cuniculus)
Sequence (whole entry): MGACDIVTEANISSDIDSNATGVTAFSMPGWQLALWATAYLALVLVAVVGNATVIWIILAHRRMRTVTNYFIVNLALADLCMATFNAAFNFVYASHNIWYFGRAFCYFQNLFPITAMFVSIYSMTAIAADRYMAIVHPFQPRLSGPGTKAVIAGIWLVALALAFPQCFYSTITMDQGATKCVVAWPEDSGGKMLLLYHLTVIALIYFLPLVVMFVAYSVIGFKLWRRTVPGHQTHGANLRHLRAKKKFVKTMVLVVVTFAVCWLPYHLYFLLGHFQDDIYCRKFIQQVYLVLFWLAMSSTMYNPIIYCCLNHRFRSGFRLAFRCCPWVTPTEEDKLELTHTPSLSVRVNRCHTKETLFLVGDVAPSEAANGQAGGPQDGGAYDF
PROTOCOL DESCRIPTION: Tested for the binding affinity towards tachykinin receptor 2 (NK2) in rabbit pulmonary artery tissue

COMPOUND	MODIFIER	pKB
COC(=O)c1ccc(C2CCN(CC[C@H](CN(C)C(=O)c3c(OC)c(C#N)cc4ccccc34)c3ccc(Cl)c(Cl)c3)CC2)c([S+](C)[O-])c1 (some centres undefined)	<	7
CN(C[C@@H](CCN1CCC(c2ccc(O)cc2[S+](C)[O-])CC1)c1ccc(Cl)c(Cl)c1)C(=O)c1cc(C#N)cc2ccccc12 (mixture of isomers)	=	8.34
CN(C[C@@H](CCN1CCC(c2ccccc2[S@+](C)[O-])CC1)c1ccc(Cl)c(Cl)c1)C(=O)c1cc(C#N)c(Br)c2ccccc12	=	6.99
CNC(=O)C1(N2CCCNC2=O)CCN(CC[C@H](CN(C)C(=O)c2cc(C#N)cc3ccccc23)c2ccc(Cl)c(Cl)c2)CC1	=	8.22

---

SYSTEM: Substance-K receptor (Oryctolagus cuniculus) (UniProt P79218)
Sequence (whole entry): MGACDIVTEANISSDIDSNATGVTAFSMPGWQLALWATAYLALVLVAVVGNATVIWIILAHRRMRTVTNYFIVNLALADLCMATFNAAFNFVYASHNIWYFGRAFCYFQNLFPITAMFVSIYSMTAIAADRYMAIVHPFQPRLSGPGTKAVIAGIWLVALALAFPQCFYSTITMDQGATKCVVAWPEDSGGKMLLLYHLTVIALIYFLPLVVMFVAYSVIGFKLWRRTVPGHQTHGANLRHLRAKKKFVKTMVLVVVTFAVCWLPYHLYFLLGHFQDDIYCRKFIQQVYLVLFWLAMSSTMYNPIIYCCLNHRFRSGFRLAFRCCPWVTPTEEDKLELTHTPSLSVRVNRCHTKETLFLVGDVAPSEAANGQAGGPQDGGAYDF
PROTOCOL DESCRIPTION: Tested for the binding affinity towards tachykinin receptor 2 (NK2) in rabbit pulmonary artery tissue
EXPERIMENTAL READOUT: pKB

                                        smi  measurement
0  CN(C[C@@H](CCN1CCC(c2ccc(Br)cc2[S@+](C)[O-])CC1)c1ccc(Cl)c(Cl)c1)C(=O)c1cc(C#N)cc2ccccc12         8.12
1  CNC(=O)C1(N2CCOCC2=O)CCN(CC[C@H](CN(C)C(=O)c2cc(C#N)cc3ccccc23)c2ccc(Cl)c(Cl)c2)CC1         7.81
2  CNC(=O)C1(N2CCOCC2=O)CCN(CC[C@H](CN(C)C(=O)c2c(OC)c(C#N)cc3ccccc23)c2ccc(Cl)c(Cl)c2)CC1         7.79
3  Cc1c(C#N)cc(C(=O)N(C)C[C@@H](CCN2CCC(c3ccccc3[S@+](C)[O-])CC2)c2ccc(Cl)c(Cl)c2)c2ccccc12          7.8
4  COc1c(C#N)cc2ccccc2c1C(=O)N(C)C[C@@H](CCN1CCC(N2CCCNC2=O)CC1)c1ccc(Cl)c(Cl)c1         7.92
5  CN(C[C@@H](CCN1CCC(N2CCCNC2=O)CC1)c1ccc(Cl)c(Cl)c1)C(=O)c1cc(C#N)cc2ccccc12         7.86
6  CNC(=O)C1(N2CCCCC2=O)CCN(CC[C@H](CN(C)C(=O)c2c(OC)c(C#N)cc3ccccc23)c2ccc(Cl)c(Cl)c2)CC1          8.2

Data credit: ChEMBL document CHEMBL1135768
